# protocol description: NCI Yeast Anticancer Drug Screen. Data for the rad50 strain (AID 155)
# condition set: S. cerevisiae rad50 strain growth inhibition; at 50.0 µM
About 79,000 compounds went through this panel and 15% of them were active in at least one assay; those are over-represented in the sample as a whole. Active and inactive are the calls of the source. Cut-off read from the data, not from the text of the source: active = growth inhibition above about 70%; inactive = the rest.
In this exercise, the only acceptable responses are active, inactive

compound | class assignment
COC1/C=C/OC2(C)Oc3c(C)c(O)c4c(O)c(c(C5SCCS5)c(O)c4c3C2=O)NC(=O)/C(C)=C\C=C\C(C)C(O)C(C)C(O)C(C)C(O)C1C (stereo not given) | inactive
O=S1(=O)OCCOS(=O)(=O)C1S(=O)(=O)c1ccc2ccccc2c1 | inactive

Ask: State the result this test recorded for CC1(C)CC2CC(CC(C)(C)C2=O)C1=O .
Result: inactive

Ask: // same read-out, input: CC(NC(=O)C(C)NC(=O)C(N)CCP(C)(=O)O)C(=O)O (stereo not given)
Result: inactive

Ask: Please do the same for COC(=O)N1CC2CC=CC(C2)c2ccccc21 (stereo not given) as well.
Result: inactive

Ask: Repeat with COc1ccc(-c2cc3cc(Cl)cc(Cl)c3oc2=O)cc1OC
Result: inactive

Ask: Subsequent entry: CC(C)SCC(N)C(=O)O (stereo not given)
Result: inactive

Ask: What would you report for C#CC[N+](C)(CC#C)CC#C ?
Result: inactive

Ask: Continue with O=C(O)c1cc(=O)c2cc3c(cc2o1)OCc1ccccc1-3
Result: inactive

Origin of the recorded values: PubChem BioAssay (NCI)
